Reference source: the DeepSol protein solubility set

assay: soluble on expression in E. coli; label from the status in PepcDB or PDB records

{"Polymer sequence": "MSLDLKFTDFLDPRVKSSLGEEEIVFPPYDANQLRDILQHRSDVAFKADALSDDVLPLCAAFAAQEHGDARRALDLLRTAGELAERDQAENVTEDHVRRAQDKIELDRVVEVVRTLPTQSKLVLYAILLLEDNGVHNVNTGEVYNIYKTLCDELDADVEGHHHHHH", "soluble on expression in E. coli": "soluble"}
{"Polymer sequence": "MLFTKASEYALLSLIYISQKETPQDVDSLALELDIPKSFLAKILQTLAKDGLLKSFKGAKGGFVLIKEPSQYTIKEIVNSAEKKDISVFECSGGTCPNNKEENCTLMPMLVNLQNKVDEFLDSITLEDIMKNNGKK", "soluble on expression in E. coli": "soluble"}
